Kindly state self-cleavage for each of the entries shown.
B1: OR4K15 (parent)
chain: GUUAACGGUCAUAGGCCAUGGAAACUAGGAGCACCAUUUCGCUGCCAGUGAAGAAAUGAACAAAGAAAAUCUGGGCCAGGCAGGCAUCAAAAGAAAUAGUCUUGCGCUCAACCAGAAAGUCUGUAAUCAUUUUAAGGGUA

Variants of: B1
method: self-cleavage, relative activity (ratio to wild type); higher = more cleavage; in vitro, sequencing; the parent is a self-cleaving ribozyme
Reply with the value as a number alone.

# input Using the record for GUUAACGGUCAUAGGCCAUGGAAACUAGGAGCACCAUUACGCUGCCAGUGAAGAAAUGAACAAAGAAAAUCUGGGCCAGGCAGGCAUCAAAAGAAAUAGUCUUGCGCUCAACCAGAAAGUCUGUAAUCAUUUCAAGGGUA [U39A U133C] , report its self-cleavage.
# output 1.76

# input Same thing, different variant: GUUAACGGUCAUAGGCCAUGGAAACAAGGAGCACCAUUUCGCCGCCAGUGAAGAAAUGAACAAAGAAAAUCUGGGCCAGGCAGGCAUCAAAAGAAAUAGUCUUGCGCUCAACCAGAAAGUCUGUAAUCAUUUUAAGGGUA [U26A U43C]
# output 1.45

# input One more variant: GUUAACAGUCAUAGGCCAUGGAAACUAGGAGCACCAUUUCGCUGCCAGUGAAGAAAUGAACAAAGAAAAUCUGGGCCAAGCAGGCAUCAAAAGAAAUAGUCUUGCGCUCAACCAGAAAGUCUGUAAUCAUUUUAAGGGUA [G7A G79A]
# output 0.11

# input Moving on to the next variant: GUUAACGGUCAUAGGCCAUGGAAACUAGGAGCACCAUUUCGCUGCCAGUGAAGAAAUGAACAAAGAAAAUCUGGGCCGGGCAGGCAUCAAAAGGAAUAGUCUUGCGCUCAACCAGAAAGUCUGUAAUCAUUUUAAGGGUA [A78G A94G]
# output 0.19

# input What do you get for GUUAACGGUCAUAGGCCAUGGAAACUAGGAGCACCAUUUCGCUGCCAGUGAAGAAAUGAACAAAGAAAAUCUGGGCCAGGCAGGCAUCAAAAGAGAUAGUCUUGCGCUCAACCAGAAAGUCUGUAAUCAUUUUAAUGGUA [A95G G136U] ?
# output 2.65

# input Moving on to GUUAACGGUCAUAGGCCAUGGAAAUUAGGAGCACCAUUUCGCUGCCAGUGAAGAAAUGAACAAAGAAAAUCUGGGCCAGGCAGGCACCAAAAGAAAUAGUCUUGCGCUCAACCAGAAAGUCUGUAAUCAUUUUAAGGGUA [C25U U87C]
# output 1.11

# input And GUUAACGGUCAUAGGCCAUGGAAACUAGGAGCACCAUUUCGCUGCCAGUGAAGAUAUGAACAAAGAAAAUCUGGGCCAGGCAGGCAUCAAAAGAAAUAGUCUUGCGCUCAACCAGAAAGUCUGAAAUCAUUUUAAGGGUA [A55U U124A] ?
# output 1.07

# input Same for GUUAACGGUCAUAGGCCAUGGAAACUAGGAGCUCCAUUUCGCUGCCAGUGAAGAAAUGAACAAAGAAAAUCUGGGCCAGGCGGGCAUCAAAAGAAAUAGUCUUGCGCUCAACCAGAAAGUCUGUAAUCAUUUUAAGGGUA [A33U A82G]
# output 0.88

# input Query GUUAACGGUCAUAGGCCAUGGAAACUAGGAGCACCACUUCGCUGCCAGUGAAGAAAUGAACAAAGAAAAUCUGGGCCAGGCAGGCAUCAAAAGAAAUAGUCAUGCGCUCAACCAGAAAGUCUGUAAUCAUUUUAAGGGUA [U37C U102A] next
# output 1.05

# input # repeat for GUUAACGGUCAUAGGCCAUGGAAACUAGGAGCACCAUUUCGCUGCCAGUGAAGAAAUGAACAAAGAAAAUCUGGGCCAGGCAGGCAUCAAAAGAAAUAGUCUUGCGCUCAACCAGAGAGUCUGUAAUAAUUUUAAGGGUA [A117G C128A]
# output 1.07

# input What do we get for GUUAACGGUCAUAGGCCAUGGAACCUAGGAGCACCAUUUCGCUGCCAGUGAAGAAAUGUACAAAGAAAAUCUGGGCCAGGCAGGCAUCAAAAGAAAUAGUCUUGCGCUCAACCAGAAAGUCUGUAAUCAUUUUAAGGGUA [A24C A59U] ?
# output 1.57

# input Similarly, GUUAACGGUCAUAGGCCAUGGAAACUAGGAGCACCAUUUCGCUGCCAGUGAAGAAAUGAACAAAGAAAAUCUGGGCCAGGCAGGCAUCAAAAGAAAUAGUCUUGCGCUCAACCAGAAAGUCCGUAAUCAUAUUAAGGGUA [U122C U131A] ?
# output 1.25

# input Now consider GUUAACGGUCAUAGGCCAUGGAAACUAGGAGCACCAUUUCGCUGCCAGUGAAGAAAUGAACAAAGAAAAUCUGGGCCAGGCAGGCAUCAAAAGAAAUAGUCUUGCGCCCAACCAGAAAGUCUGCAAUCAUUUUAAGGGUA [U108C U124C] and answer again.
# output 0

# input Request: GUUAACGGUCAUAGGCCAUGGAAACUAGGAGCACCUUUUCGCUGCCAGUGAAGAAAUGAACAAAGAAAAUCAGGGCCAGGCAGGCAUCAAAAGAAAUAGUCUUGCGCUCAACCAGAAAGUCUGUAAUCAUUUUAAGGGUA [A36U U72A]
# output 0.37

# input Another variant to look at: GUUAACGGUCUUAGGCCAUGGAAACUAGGAGCACCAUUUCGCUGCCAGUGAAGAAAUGAACAAAGAAAAUCUGGGCCAGGCAGGCAUCAAAAGAAAUAGUCUUGCGCUCAACCAGAAAGUCUGUAAUCAUUUUAAGGGUU [A11U A140U]
# output 1.3

# input Same thing, different variant: GUUAACGGUCAUAGGCCAUGGAAACUAGGAGCACCAUUUCGCUGCCAGUGAAGAAAUGAACAAAGAAAAUCUGGGCCAGGCAGGCAUCAAAAAAGAUAGUCUUGCGCUCAACCAGAAAGUCUGUAAUCAUUUUAAGGGUA [G93A A95G]
# output 2.26
